Hi, quick share: literature pIC50 data for 3',5'-cyclic-AMP phosphodiesterase 4B (Homo sapiens, UniProt Q07343), several sources combined.
pIC50: −log10 of the molar value.
property.name: pIC50

1. COc1ccc(-c2cccc(C3COB(O)C3)c2)cc1OCCF (stereo not shown) = 8.79
2. CCOc1cc(-c2cccc(C3COB(O)C3)c2)ccc1SC (stereo not shown) = 8.75
3. COc1ccc(N2CC(Oc3cc([C@@H]4CN(C(=O)[C@@H](O)CO)C[C@@]4(C)[C@@H](C)O)ccc3OC)C2)cn1 = 8.71
4. COc1ccc(-c2cncc(C3COB(O)C3)c2)c(F)c1OC (stereo not shown) = 8.38
5. COc1ccc(-c2cccc(C3COB(O)C3)n2)cc1OC1CCCC1 (single isomer, unassigned) = 8.40
6. COc1ccc(-c2cccc(C3COB(O)C3)n2)c(F)c1OC (stereo not shown) = 7.84
7. CCOc1ccc(-c2cncc(C3COB(O)C3)c2)cc1OC (single isomer, unassigned; enantiomer2) = 7.90
8. COc1ccc([C@@H]2CN(C(=O)[C@@H](O)CO)C[C@@]2(C)[C@@H](C)O)cc1OC1CN(c2ncc(Cl)cc2F)C1 = 9.11
9. CCCOc1c(OC)ccc(-c2cncc(C3COB(O)C3)n2)c1F (single isomer, unassigned; enantiomer 1) = 8.39
10. CCOc1cc(-c2cncc(C3COB(O)C3)c2)cc(C#N)c1OC (stereo not shown) = 9.05
11. CCOc1c(OC)ccc(-c2cncc(C3COB(O)C3)c2)c1F (stereo not shown) = 8.66
12. COc1ccc([C@@H]2CN(C(=O)[C@@H](O)CO)C[C@@]2(C)[C@@H](C)O)cc1OC1CN(c2ccc(C3CC3)cn2)C1 = 9.60
13. CCCOc1c(OC)ccc(-c2cccc(C3COB(O)C3)n2)c1C#N (stereo not shown) = 8.14
14. CCCOc1cc(-c2nc(C3COB(O)C3)ccc2F)ccc1OC (stereo not shown) = 7.99
15. CCOc1c(OC)ccc(-c2cncc(C3COB(O)C3)c2)c1C(F)(F)F (stereo not shown) = 7.90
16. COc1ccc(-c2cncc(C3COB(O)C3)c2)cc1OC1CC1 (single isomer, unassigned; enantiomer 1) = 9.20
17. CCCOc1cc(-c2cncc(C3=CB(O)OC3)c2)ccc1OC = 8.62
18. COc1ccc(-c2cccc(C3COB(O)C3)c2)cc1OC (stereo not shown) = 8.33
19. COc1ccc(-c2cccc(C3COB(O)C3)n2)c(C#N)c1OC1CCCC1 (stereo not shown) = 8.06
20. COc1ccc(-c2cncc(C3COB(O)C3)c2)cc1OCCO (single isomer, unassigned; enantiomer 2) = 8.20
21. CCOc1cc(C2COB(O)C2)nc(-c2ccc(OC)c(OCC)c2)n1 (single isomer, unassigned; enantiomer 1) = 8.18
22. CCCOc1cc(-c2cc(C3COB(O)C3)cc(CO)n2)ccc1OC (single isomer, unassigned; enantiomer 1) = 8.52
23. O=C(c1cc2cccnc2n1-c1ccc(Cl)c(Cl)c1)N1CC(F)C1 = 6.64
24. Cc1ccc(-n2c(C(=O)N3CC(F)C3)cc3cccnc32)cc1Cl = 6.04
25. COc1ccc([C@@H]2CN(C(=O)[C@@H](O)CO)C[C@@]2(C)[C@@H](C)O)cc1OC1CN(c2ccc(C)c(C#N)n2)C1 = 9.39
26. CCOc1cc(-c2cncc(C3COB(O)C3)c2C)ccc1OC (single isomer, unassigned; enantiomer 2) = 8.58
27. COc1ccc([C@@H]2CN(C(=O)[C@@H](O)CO)C[C@@]2(C)[C@@H](C)O)cc1OC1CN(c2ncc(C)cc2C)C1 = 8.38
28. COc1ccc([C@@H]2CN(C(=O)[C@@H](O)CO)C[C@@]2(C)[C@@H](C)O)cc1OC1CN(c2ccc(C)c(C)n2)C1 = 8.93
29. COc1ccc([C@@H]2CN(C(=O)[C@@H](O)CO)C[C@@]2(C)[C@@H](C)O)cc1OC1CN(c2ccc(CC(F)(F)F)cn2)C1 = 9.66
30. COc1cnc(-c2cccc(C3COB(O)C3)c2)nc1OC1CCCC1 (stereo not shown) = 9.30
31. CCOc1cc(-c2cccc(C3COB(O)C3)c2)ccc1OC (stereo not shown) = 8.62
